# TEST_METHOD_NOTES: Ratio of drug level in brain to plasma in mouse at 5 mg/kg, ip after 1 hr by LC-MS analysis
# Format: ADME, organism-based
READOUT_TYPE: BPR
Format: numeric value only, no unit, no commentary.

Looking for the measured BPR of `Cc1cc(C)cc(COc2ccc(N(CCN)C(=O)c3cccnc3Cl)cc2)c1.Cl.Cl` , can you help?
0.06

Requested read-out: BPR. Entry: `Cl.NCCN(C(=O)c1ccc(Cl)cc1Cl)c1ccc(OCc2ccc(Cl)cc2)cc1`
0.42

I would be grateful if you could share the reported BPR for `Cc1cc(C)cc(COc2ccc(N(CCN)C(=O)c3ccccc3C(F)(F)F)cc2)c1.Cl` .
0.96

Which BPR is reported for this compound? `Cl.NCCN(C(=O)c1ccccc1C(F)(F)F)c1ccc(OCc2ccc(Cl)cc2)cc1`
0.88

Requested read-out: BPR. Entry: `CC(C)c1ccc(COc2ccc(N(CCN)C(=O)c3cccnc3Cl)cc2)cc1.Cl`
0.16

Which BPR value belongs to `CC(C)c1ccc(COc2ccc(N(CCN)C(=O)c3ccc(F)cc3C(F)(F)F)cc2)cc1.Cl` ?
0.22

Find the recorded BPR belonging to `CC(C)c1ccc(COc2ccc(N(CCN)C(=O)c3cccnc3C(F)(F)F)cc2)cc1.Cl` and report it.
0.23

Look at this compound and give its reported BPR. `Cl.NCCN(C(=O)c1ccc(F)cc1C(F)(F)F)c1ccc(OCc2ccc(Cl)cc2)cc1`
0.38

I'd like to know its BPR. The compound in question is `CC(C)c1ccc(COc2ccc(N(CCN)C(=O)c3ccc(Cl)cc3Cl)cc2)cc1.Cl`
0.32

Which value of BPR has been reported for `Cc1cc(C)cc(COc2ccc(N(CCN)C(=O)c3ccc(Cl)cc3Cl)cc2)c1.Cl` in the records?
0.18

* * *

# System: Trypanosoma brucei rhodesiense
# TEST_METHOD_NOTES: Antiparasitic activity against Trypanosoma brucei rhodesiense STIB900 infected in Swiss-Webster mouse assessed as cure rate at 50 mg/kg, bid administered via oral gavage from day 2 to 5 post infection measured after 60 days by microscopic method relative to control
# Type: functional
Please provide measured Activity for the entries that follow.
Numeric answer only, unit % assumed.

What value of Activity has been reported for the following molecule? `Cc1cc(C)cc(COc2ccc(N(CCN)C(=O)c3ccc(Cl)cc3Cl)cc2)c1.Cl`
33

Entry `Cc1cc(C)cc(COc2ccc(N(CCN)C(=O)c3ccccc3C(F)(F)F)cc2)c1.Cl` has what Activity?
33

Please look up its Activity: `CC(C)c1ccc(COc2ccc(N(CCN)C(=O)c3ccc(F)cc3C(F)(F)F)cc2)cc1.Cl`
33

* * *

# TEST_METHOD_NOTES: Cmax in mouse at 50 mg/kg, po by LC-MS analysis
# Type: ADME, organism-based
# Set-up: dose 50 mg/kg, route oral
# SETTINGS: in vivo
Hi there, I'd appreciate the recorded Cmax for every entry that follows.
# value in nM; strip the unit string

Given the entry `CC(C)c1ccc(COc2ccc(N(CCN)C(=O)c3cccnc3C(F)(F)F)cc2)cc1.Cl` , report its measured Cmax.
1000

What Cmax value was documented for this compound, `Cl.NCCN(C(=O)c1ccccc1C(F)(F)F)c1ccc(OCc2ccc(Cl)cc2)cc1` ?
1670

Quick check: Cmax of `Cl.NCCN(C(=O)c1ccc(Cl)cc1Cl)c1ccc(OCc2ccc(Cl)cc2)cc1` ?
530

Dear colleague, I am looking for the recorded Cmax of the following compound: `Cc1cc(C)cc(COc2ccc(N(CCN)C(=O)c3cccnc3Cl)cc2)c1.Cl.Cl`
2070

Can you look up the measured Cmax of `CC(C)c1ccc(COc2ccc(N(CCN)C(=O)c3ccc(Cl)cc3Cl)cc2)cc1.Cl` for me?
1490

Given `CC(C)c1ccc(COc2ccc(N(CCN)C(=O)c3cccnc3Cl)cc2)cc1.Cl` , state its recorded Cmax.
1890

Which value of Cmax has been reported for `Cl.NCCN(C(=O)c1ccc(F)cc1C(F)(F)F)c1ccc(OCc2ccc(Cl)cc2)cc1` in the records?
4390

Requested read-out: Cmax. Entry: `CC(C)c1ccc(COc2ccc(N(CCN)C(=O)c3ccc(F)cc3C(F)(F)F)cc2)cc1.Cl`
1780

Bench note: what Cmax did `Cc1cc(C)cc(COc2ccc(N(CCN)C(=O)c3ccc(Cl)cc3Cl)cc2)c1.Cl` show?
5900

Suppose we examine the compound `Cc1cc(C)cc(COc2ccc(N(CCN)C(=O)c3ccccc3C(F)(F)F)cc2)c1.Cl` ; what Cmax value has been reported?
1010

* * *

# TEST_METHOD_NOTES: Cytotoxicity against human CRL8155 cells assessed as growth inhibition after 48 hrs by Alamar blue assay
# Assay type: cell-based
# SETTINGS: crl8155, 48 h
Assign log10(CC50) to each entry below.
Friendly reminder: values = log10 of CC50, unit µM.

Fill in: log10(CC50) of `NCCN(C(=O)c1ccc(Cl)cc1Cl)c1ccc(Br)cc1` is ___
1.06

Which log10(CC50) is listed for `CC(C)c1ccc(COc2ccc(N(CCN)C(=O)c3ccc(F)cc3C(F)(F)F)cc2)cc1.Cl` ?
0.45

Query: log10(CC50); subject: `Cc1cc(C)cc(COc2ccc(N(CCN)C(=O)c3cccnc3C(F)(F)F)cc2)c1`
0.68

I am curious: what log10(CC50) value has been reported for `NCCN(C(=O)c1cccnc1Cl)c1ccc(OCc2ccc(Cl)cc2)cc1` ?
1.06

So what does the record say about log10(CC50) for `CC(C)c1ccc(COc2ccc(N(CCN)C(=O)c3ccccc3[N+](=O)[O-])cc2)cc1` ?
0.48

Which log10(CC50) is reported for this compound? `Cl.NCCN(C(=O)c1ccccc1C(F)(F)F)c1ccc(OCc2ccc(Cl)cc2)cc1`
0.49

Reported log10(CC50), compound `Cc1ccc(N(CCN)C(=O)c2ccc(Cl)cc2Cl)cc1` : ____
1.40

I have this compound here, `NCCN(C(=O)c1c(Cl)cc(Cl)cc1Cl)c1ccc(Cl)cc1` , and I need its recorded log10(CC50).
0.93

What value of log10(CC50) has been reported for the following compound? `Cc1cc(C)cc(COc2ccc(N(CCN)C(=O)c3cccnc3Cl)cc2)c1.Cl.Cl`
0.71

Bench note: what log10(CC50) did `NCCN(C(=O)c1ccc(Cl)cc1Cl)c1ccc(N)cc1` show?
1.04

What log10(CC50) value was documented for this compound, `NCCN(C(=O)c1ccc(F)cc1C(F)(F)F)c1ccc(Cl)cc1` ?
1.63

GET /values?readout=log10(CC50)&item= `CC(C)c1ccc(COc2ccc(N(CCN)C(=O)c3ccccc3Br)cc2)cc1`
0.28

Bench note: what log10(CC50) did `CC(C)c1ccc(COc2ccc(N(CCN)C(=O)c3ccc(Cl)cc3Cl)cc2)cc1.Cl` show?
0.49

Using the record for `NCCN(C(=O)c1cccnc1C(F)(F)F)c1ccc(OCc2ccc(Cl)cc2)cc1` , report its log10(CC50).
0.90

Need log10(CC50) of `CC(C)c1ccc(COc2ccc(N(CCN)C(=O)c3ccccc3C(F)(F)F)cc2)cc1` , thanks.
0.35

Item under review: `Cc1cc(C)cc(COc2ccc(N(CCN)C(=O)c3ccc(F)cc3C(F)(F)F)cc2)c1` . Reported log10(CC50)?
0.35

Which log10(CC50) value is on record for `CCc1ccc(COc2ccc(N(CCN)C(=O)c3ccc(Cl)cc3Cl)cc2)cc1` ?
0.41

What does the data say about its log10(CC50)? Entry: `CC(C)c1ccc(COc2ccc(N(CCN)C(=O)c3cccnc3Cl)cc2)cc1.Cl`
0.61

Quick one: log10(CC50) for `NCCN(C(=O)c1ccc(Cl)cc1Cl)c1ccc(Cl)cc1` ?
1.10

Fill blank: measured log10(CC50) of the compound `Cl.NCCN(C(=O)c1ccc(Cl)cc1Cl)c1ccc(OCc2ccc(Cl)cc2)cc1` is ____.
0.30

Using the record for `Cl.NCCN(C(=O)c1ccc(Cl)cc1Cl)c1ccc(F)cc1` , report its log10(CC50).
1.48

State the recorded log10(CC50) for this entry: `CC(C)(C)c1ccc(COc2ccc(N(CCN)C(=O)c3ccc(Cl)cc3Cl)cc2)cc1`
0.33

Quick check: log10(CC50) of `Cc1cc(C)cc(COc2ccc(N(CCN)C(=O)c3ccccc3C(F)(F)F)cc2)c1.Cl` ?
0.47

Using the record for `CC(C)c1ccc(COc2ccc(N(CCN)C(=O)c3cccnc3C(F)(F)F)cc2)cc1.Cl` , report its log10(CC50).
0.31

// returns reported log10(CC50) for input `Cc1cc(C)cc(COc2ccc(N(CCN)C(=O)c3ccc(Cl)cc3Cl)cc2)c1.Cl`
0.39

Could you tell me which log10(CC50) is on file for `NCCN(C(=O)c1ccc(Cl)cc1Cl)c1ccc(OCc2cccc(Cl)c2)cc1` ?
0.38

Look at this compound and give its reported log10(CC50). `Cl.NCCN(C(=O)c1ccc(F)cc1C(F)(F)F)c1ccc(OCc2ccc(Cl)cc2)cc1`
0.56
